Reported melting point by item:
Reply numerically in °C, unit not repeated.

Past entries and their recorded results:
COc1ccc(C2CCN(c3ccc(CNC(=O)c4c(C)nc5ccc(C)cn45)cc3)CC2)cc1: 184
CCc1nc2ccc(Cl)cn2c1C(=O)NCc1ccc(CN2CCOCC2)cc1: 133
COc1ccc2nc(C)c(C(=O)NCc3ccc(N4CCC(c5ccc(OC(F)(F)F)cc5)CC4)cc3)n2c1: 183
COc1ccc2nc(C)c(C(=O)NCc3ccc(N4CCC(c5ccc(C(F)(F)F)cc5)CC4)cc3)n2c1: 207
COc1ccc2nc(C)c(C(=O)NCc3ccc(N4CCC(c5ccc(F)cc5)CC4)cc3)n2c1: 192
CCc1nc2ccccn2c1C(=O)NCc1ccc(N(C)c2ccc(OC(F)(F)F)cc2)cc1: 120
Cc1ccc2nc(C)c(C(=O)NCc3ccc(N4CCC(c5ccc(OC(F)(F)F)cc5)CC4)cc3)n2c1: 184
COc1ccc2nc(C)c(C(=O)NCc3ccc(N4CCC(c5ccc(C)cc5)CC4)cc3)n2c1: 178
Cc1ccc2nc(C)c(C(=O)NCc3ccc(N4CCC(c5ccc(Cl)cc5)CC4)cc3)n2c1: 188
CCc1nc2ccc(Cl)cn2c1C(=O)NCc1ccc(CN2CCOC2=O)cc1: 179

Q: Requested field: melting point. Item: CCc1nc2cc(Cl)ccn2c1C(=O)NCc1ccc(CN2CCOCC2)cc1
A: 107

###

parameter measured: melting point (°C)
Kindly answer with a numeric value in °C, unit omitted.

Sample answers from the record:
Cc1ccc2nc(C)c(C(=O)NCc3ccc(N4CCC(c5ccc(F)cc5)CC4)cc3)n2c1 [Compound 293]: 181
CCc1nc2cc(Cl)ccn2c1C(=O)NCc1ccc(CN2CCOC2=O)cc1 [Compound 283]: 172
CCc1nc2ccc(Cl)cn2c1C(=O)NCc1ccc(N(C)c2ccc(OC(F)(F)F)cc2)cc1 [Compound 286]: 138

Q: Given CCc1nc2cc(Cl)ccn2c1C(=O)NCc1ccc(N(C)c2ccc(OC(F)(F)F)cc2)cc1 [Compound 287] , state its recorded melting point.
A: 134

###

parameter measured: melting point

Check out these entries, answers already filled in.
CCc1nc2ccc(Cl)cn2c1C(=O)NCc1cc2cc(Cl)ccc2s1: > 220 °C
CCc1nc2ccc(Cl)cn2c1C(=O)NCc1ccc(C2CCOCC2)cc1: > 195.5 °C (dec.)
CCc1nc2ccc(Cl)cn2c1C(=O)NCc1nc2ccc(Cl)cc2n1C: > 220 °C
CCc1nc2ccc(Cl)cn2c1C(=O)NCc1cccc(CC(=O)Nc2ccc(F)cc2)c1: > 198.8 °C (dec.)
CCc1nc2cc(Cl)ccn2c1C(=O)NCc1ccc(C2CCOCC2)cc1: > 156.6 °C (dec.)
CCc1nc2ccc(F)cn2c1C(=O)NCc1ccc(N2CCC(c3ccc(OC(F)(F)F)cc3)CC2)cc1: > 167.9 °C (dec.)
CCc1nc2ccc(Cl)cn2c1C(=O)NCc1cccc(N2CCC(Oc3ccc(OC(F)(F)F)cc3)CC2)c1: 126.3 to 127.2 °C

Kindly consider the entry below.
Q: Which melting point value is on record for CCc1nc2ccc(Cl)cn2c1C(=O)NCc1cccc(N2CCN(c3ccc(OC(F)(F)F)cc3)CC2)c1 ?
A: > 168 °C (dec.)

###

melting point by entry:

Example molecules with recorded melting point:
CCc1nc2ccc(Cl)cn2c1C(=O)NCc1cc2cc(Cl)ccc2o1 [Compound 261]: 223.5 to 225.6 °C
CCc1nc2ccc(Cl)cn2c1C(=O)NCc1ccc(N2CCC(C(=O)Cc3ccc(F)cc3)CC2)cc1 [Compound 244]: 216.2 to 220.7 °C
CCc1nc2cc(Cl)ccn2c1C(=O)NCc1ccc(N2CC(COc3ccc(F)cc3)OC2=O)cc1 (stereo not drawn) [Compound 271]: > 97.1 °C
CCc1nc2cc(Cl)ccn2c1C(=O)NCc1nc2cc(-c3ccc(OC(F)(F)F)cc3)ccc2o1 [Compound 265]: > 220 °C
CCc1nc2ccc(Cl)cn2c1C(=O)NCc1cccc(N2CCC(c3ccc(OC(F)(F)F)cc3)CC2)c1 [Compound 249]: 135.5 to 136.4 °C
CCc1nc2c(F)cccn2c1C(=O)NCc1ccc(N2CCC(c3ccc(OC(F)(F)F)cc3)CC2)cc1 [Compound 268]: > 177.7 °C (dec.)

Q: Entry CCc1nc2ccc(Cl)cn2c1C(=O)NCc1nc2ccc(Cl)cc2s1 [Compound 266] has what melting point?
A: > 220 °C

Q: Give the measured melting point of CCc1nc2ccc(Cl)cn2c1C(=O)NCc1ccc(CC2CCOCC2)cc1 [Compound 253] .
A: 132.2 to 133 °C

Q: What does the data say about its melting point? Entry: CCc1nc2ccc(Cl)cn2c1C(=O)NCc1nc2ccc(Cl)cc2o1 [Compound 264]
A: 201.1 to 201.8 °C

Q: Data request, read-out melting point, for CCc1nc2ccc(Cl)cn2c1C(=O)NCc1cccc(OCc2ccc(OC(F)(F)F)cc2)c1 [Compound 248]
A: > 142.7 °C (dec.)

Q: Can you share its melting point? I mean this molecule: CCc1nc2ccc(Cl)cn2c1C(=O)NCc1nc2cc(Cl)ccc2n1C [Compound 263]
A: > 220 °C

Q: Look up melting point: CCc1nc2ccc(Cl)cn2c1C(=O)NCc1cccc(N(C)Cc2ccc(OC(F)(F)F)cc2)c1 [Compound 247]
A: > 142.3 °C (dec.)

###

parameter measured: melting point

// known answers, use as guide
CCc1nc2cc(Cl)ccn2c1C(=O)NCc1ccc(CC2CCOCC2)cc1 [Compound 254]: > 125.9 °C (dec.)
CCc1nc2cc(Cl)ccn2c1C(=O)NCc1ccc(N2CC(Cc3ccc(F)cc3)OC2=O)cc1 (stereo not shown) [Compound 270]: > 96.9 °C (dec.)
CCc1nc2ccccn2c1C(=O)NCc1ccc(C2CCOCC2)cc1 [Compound 257]: > 133.7 °C (dec.)

Turning now to a further compound:
Q: Name the reported melting point value associated with the compound CCc1nc2cc(Cl)ccn2c1C(=O)NCc1nc2ccc(-c3ccc(OC(F)(F)F)cc3)cc2o1 [Compound 269]
A: > 220 °C

Data origin, for the record: patent US20160185774A1
